Parameter: log10 EC50. Scope: all listed entries.
- tested-target: AGTR1 (Homo sapiens, UniProt P30556)
- Construct: host or cells: Pathunter CHO-K1 AGTR1 β-arrestin cell line (CHO-K1)
- test-name: DiscoveRx β-arrestin2 recruitment assay (enzyme complementation, Pathunter CHO-K1 AGTR1 β-arrestin cell line)
- Type: cell-based
- reported-conditions: DiscoveRx β-arrestin2 recruitment
Kindly note that the scale is log10 and the underlying EC50 is in nM.

{"columns": ["compound", "log10 EC50"],
 "data": [
  ["CCCCC(=O)N(Cc1ccc(-c2cc(-c3ccccc3)ccc2-c2nn[nH]n2)cc1)C1(C(=O)O)CCC(C)(C)CC1 [Example 275]", 1.42],
  ["CCCCC1=NC2(CCCC2)C(=O)N1Cc1ccc(-c2cc(-c3cccnc3)ccc2-c2nn[nH]n2)cc1 [Example 125]", 1.66]
]}

Find the recorded log10 EC50 belonging to CCc1nc2c(C)cc(C)nc2n1Cc1ccc(-c2cc(Oc3cccc(OC(F)(F)F)c3)ccc2-c2nnn[nH]2)cc1 [Example 207] and report it.
1.06

Find the recorded log10 EC50 belonging to CCCCc1ncc(C(=O)NCc2cnccn2)n1Cc1ccc(-c2cc(-c3ccccc3)ccc2-c2nn[nH]n2)cc1 [Example 359] and report it.
1.24

----------
- tested-target: hAT1R (Homo sapiens, UniProt P30556)
- Sequence (P30556 1-359): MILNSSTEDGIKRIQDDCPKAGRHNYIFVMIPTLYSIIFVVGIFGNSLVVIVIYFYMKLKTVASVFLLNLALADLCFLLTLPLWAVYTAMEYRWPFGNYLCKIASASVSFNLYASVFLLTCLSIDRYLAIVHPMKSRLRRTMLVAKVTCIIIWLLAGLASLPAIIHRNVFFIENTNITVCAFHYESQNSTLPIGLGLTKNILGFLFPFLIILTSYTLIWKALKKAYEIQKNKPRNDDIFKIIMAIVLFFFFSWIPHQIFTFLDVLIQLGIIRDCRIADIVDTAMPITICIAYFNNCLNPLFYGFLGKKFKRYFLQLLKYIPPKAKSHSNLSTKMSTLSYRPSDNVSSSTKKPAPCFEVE
- test-name: cell-based
- reported-conditions: agonist mode; read-out: BRET P63 EC50
metric: EC50 (nM)
State just the number; it will be interpreted in nM.

Completed entries (count: 4):
{"columns": ["molecule", "metric", "test-value"],
 "data": [
  ["CCc1nc2c(C)cc(C)nc2n1Cc1ccc(-c2cc(-c3ccccc3O)ccc2-c2nn[nH]n2)cc1 [Example 10]", "EC50", 2.8],
  ["CCOc1nc2cccc(C(=O)O)c2n1Cc1ccc(-c2cc(OC3CCCCC3)ccc2-c2nn[nH]n2)cc1 [Example 343]", "EC50", 26.7],
  ["CCC1=NC2(CCOC2)C(=O)N1Cc1ccc(-c2cc(-c3ccccc3O)ccc2-c2nnn[nH]2)cc1 (single isomer, unassigned) [Example 170]", "EC50", 633],
  ["CCc1nc2c(C)cc(C)nc2n1Cc1ccc(-c2cc(-n3nnc4ccccc43)ccc2-c2nnn[nH]2)cc1 [Example 233]", "EC50", 13.2]
]}

Alright, here's another molecule for you.
Find the recorded EC50 belonging to CCc1nc2c(C)cc(C)nc2n1Cc1ccc(-c2cc(-c3ccccc3)ccc2-c2nnn[nH]2)cn1 [Example 179] and report it.
52.3

FYI, the data here is from patent US12037324B2.
